Tested on: IGROV1 ovarian
procedure-details: NCI tumour cell line growth inhibition, 48 h
recorded-metric: TGI

Consider COC[n+]1cc2cc(OC)c(OC)cc2c2ccc3cc(OC)c(OC)cc3c21 . Its measured TGI is > 100 µM

TGI reported for this molecule CN(C)CCO/N=C1/C=C2CC[C@H]3[C@@H]4CC[C@H](O)[C@@]4(C)CC[C@@H]3[C@@]2(C)CC1 : 25.2 µM

Memo: COc1ccc(SC(C)(SC)c2ccccn2)c(OC)n1 (stereo not given) , reported TGI: > 100 µM

The recorded TGI for CCOC(=O)CC[C@@H](NC(=O)c1ccc(N[C@@H]2c3cc4c(cc3C(c3cc(OC)c(O)c(OC)c3)C3C(=O)OC[C@@H]32)OCO4)cc1)C(=O)OCC (stereo not given in full) is 0.32 µM

Consider Cc1[nH]c(/C=C2\C(=O)Nc3ccc(F)cc32)c(C)c1C(=O)NC[C@H](O)CN1CCOCC1 . Its measured TGI is > 10 µM

// TGI lookup, molecule = O=P(O)(Cc1ccccc1)OCC1(O)OCC(O)C(O)C1O (stereo not given) , result: > 10 µM

The reported TGI of the molecule O=C(O)C12C3CCCC1C2CC3 (stereo not given) was > 100 µM

Reported TGI ( COC(=N)C12C(N)=NC(OC)(OC)C1(C#N)C21C(=O)N(c2ccccc2)N=C1C (stereo not given) ) = > 100 µM

molecule CCOC(=O)CCC(NC(=O)c1ccc(Nc2nc3cc(C(F)(F)F)ccc3nc2-c2ccccc2)cc1)C(=O)OCC (stereo not given) , TGI observed: > 100 µM

The measured TGI associated with CCOC(=O)c1ccc(C(=O)/C(C#N)=C2\CCCN2)[nH]1 reads > 100 µM

CN(c1ccccc1)C(c1ccccc1)C(O)c1ccccc1 (stereo not given) yielded TGI of 45.4 µM

Field TGI (entry COc1ccc(-c2nc(-c3ccccc3)c(-c3ccccc3)n2C2CC2)cc1OC1CCCC1 ) reads > 165 µM

Given item S=C(Nc1ccc(Cl)cc1)Nc1ccc(Cl)cc1 (tested in a mixture with another compound) , the value recorded as its TGI is > 100 µM

The molecule COc1nc(C)cc2c(=O)n(-c3ccccc3)n(CCCN3CCN(c4ccc(Cl)cc4)CC3)c(=O)c12 showed TGI equal to > 50 µM

Field TGI (entry O=C1C=Cc2ccccc2/C1=C/c1[nH]c(=O)[nH]c1O ) reads 26.6 µM

# molecule CCOC(=O)n1cncc1CC(NC(=O)Cc1c(C(=O)C=C(C)C)[nH]c2ccccc12)C(=O)OC (stereo not given) ; its TGI = 37.5 µM

molecule Nc1c(-c2nc3ccccc3[nH]2)sc(=S)n1-c1ccccc1 , TGI observed: > 100 µM

For COc1ccc(/C=C2/C[N+](C)(C)C/C(=C/c3ccc(OC)cc3)C2=O)cc1 the molecule record lists TGI as 64.7 µM

The molecule N=C(N)CCCCCCCCC(=N)N showed TGI equal to > 100 µM

Quick note, TGI for COC(=O)C1(O)c2ccccc2N=C2C(=O)c3ccccc3N21 (stereo not given) landed at > 100 µM

The molecule CC(O)C(O)C(N)CC=O (stereo not given) showed TGI equal to > 500 µM

Kindly note the recorded TGI for CS(=O)c1ccc(COP(N)(=O)N(CCCl)CCCl)cc1 (stereo not given) , which is > 100 µM

Reported TGI of COC(=O)C(Nc1ccc(OC)cc1)c1ccccc1 (stereo not given) : > 100 µM
